# study_system: glutathione S-transferase (GST)
# run_description: ITC
Where no end group is shown, it is not given here. The star is where a group is joined. Prodan = Prodan fluorogenic core conjugated to Cys (C*)
readout_kind: Kd (nM)
Report the figure in nM without appending any unit label.

Recorded result, NTVSC(Prodan)HGF [Prodan-evolver NTVSC*HGF (1)] , Kd: 2400
